# system tested: T1, human IL-10 receptor (hIL-10R alpha and beta chains) on HEK-Blue IL-10 reporter cells (human, UniProt Q13651 22-578; Q08334 20-325)
# T1 sequence 1: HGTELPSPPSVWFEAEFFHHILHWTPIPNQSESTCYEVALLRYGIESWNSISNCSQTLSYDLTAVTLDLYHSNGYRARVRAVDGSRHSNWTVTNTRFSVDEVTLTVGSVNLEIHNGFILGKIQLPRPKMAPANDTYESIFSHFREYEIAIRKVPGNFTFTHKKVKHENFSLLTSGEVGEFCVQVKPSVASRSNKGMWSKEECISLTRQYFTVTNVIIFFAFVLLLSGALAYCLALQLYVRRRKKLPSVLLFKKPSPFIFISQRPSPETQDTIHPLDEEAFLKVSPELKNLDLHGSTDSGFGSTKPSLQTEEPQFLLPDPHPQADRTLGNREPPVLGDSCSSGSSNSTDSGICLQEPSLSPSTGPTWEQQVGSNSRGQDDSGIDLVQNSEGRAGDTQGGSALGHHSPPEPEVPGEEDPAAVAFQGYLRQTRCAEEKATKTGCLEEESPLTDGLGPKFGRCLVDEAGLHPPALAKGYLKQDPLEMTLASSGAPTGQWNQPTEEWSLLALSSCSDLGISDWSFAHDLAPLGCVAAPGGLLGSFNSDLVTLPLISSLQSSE
# T1 sequence 2: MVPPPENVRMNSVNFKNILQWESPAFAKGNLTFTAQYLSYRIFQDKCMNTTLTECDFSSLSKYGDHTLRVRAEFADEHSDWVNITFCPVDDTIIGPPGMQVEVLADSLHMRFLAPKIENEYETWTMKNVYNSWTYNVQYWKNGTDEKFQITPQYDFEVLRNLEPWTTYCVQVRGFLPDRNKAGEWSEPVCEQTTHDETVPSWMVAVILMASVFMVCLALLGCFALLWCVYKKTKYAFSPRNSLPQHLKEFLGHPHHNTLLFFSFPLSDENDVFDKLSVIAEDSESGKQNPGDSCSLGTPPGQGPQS
# assay explanation: cell-based or functional assay
Rule for this label: label 1 means Abs 630 (100 nM) is less than 0.4 Abs 630; label 0 means Abs 630 (100 nM) is at least 0.4 Abs 630.

The following binders have reported results that may help.
Data request: # check: Abs 630 (100 nM) < 0.4 Abs 630 for IL10R binding molecule of SEQ ID NO: 330 (bispecific antibody) QVQLQESGGGSVQAGGSLRLSCTVSRYTASVNYMGWFRQAPGKEREGVATIFTGAGTTYYANSVKGRFTISRDNAKNTAYLQMNSLKPEDTAIYYCAVDFRGGLLYRPAYEYTYRGQGTQVTVSSGGGSQVQLQESGGGSVQAGGSLRLSCTVSGYTYSSNCMGWFRQAPGKEREGVATIYTGGGNTYYADSVKGRFTISQDNAKNTVYLQMNNLKPEDTAMYYCAAEPLSRVYGGSCPTPTFDYWGQGTQVTVSSASHHHHHH
Data returned: label 1

Data request: # check: Abs 630 (100 nM) < 0.4 Abs 630 for IL10R binding molecule of SEQ ID NO: 347 (bispecific antibody) QVQLQESGGGSVQTGGSLRLSCAASGYTYLRGCMGWFRQAPGKEREGVAVMDVVGDRRSYIDSVKGRFTISRDNAANSVYLQMDNLKPEDTAMYYCTAGPNCVGWRSGLDYWGQGTQVTVSSGGGSQVQLQESGGGSVQAGGSLRLSCAASRYLYSIDYMAWFRQSPGKEREPVAVIYTASGATFYPDSVKGRFTISQDNAKMTVYLQMNSLKSEDTAMYYCAAVRKTDSYLFDAQSFTYWGQGTQVTVSSASHHHHHH
Data returned: label 1

Data request: # check: Abs 630 (100 nM) < 0.4 Abs 630 for IL10R binding molecule of SEQ ID NO: 340 (bispecific antibody) QVQLQESGGGSVQAGGSLRLSCAASGYSYSSYCMGWFRQAPGKEREGVATIDSDGMTRYADSVKGRFTISKDNAKNTLYLQMNSLKPEDTAMYYCAAPLYDCDSGAVGRNPPYWGQGTQVTVSSGGGSQVQLQESGGGSVQAGGSLRLSCAASRYLYSIDYMAWFRQSPGKEREPVAVIYTASGATFYPDSVKGRFTISQDNAKMTVYLQMNSLKSEDTAMYYCAAVRKTDSYLFDAQSFTYWGQGTQVTVSSASHHHHHH
Data returned: label 0

Others:
Data request: # check: Abs 630 (100 nM) < 0.4 Abs 630 for IL10R binding molecule of SEQ ID NO: 335 (bispecific antibody) QVQLQESGGGSVEAGGSLRLSCAASGYTHSSYCMGWFRQAPGKEREGVAAIDVDGSTTYADSVKGRFTISKDNAKNTLYLQMNSLKPEDTGMYYCAAEFADCSSNYFLPPGAVRYWGQGTQVTVSSGGGSQVQLQESGGGSVQAGGSLRLSCAASGYTYSMYCMGWFRQAPGKEREGVAQINSDGSTSYADSVKGRFTISKDNAKNTLYLQMNSLKPEDTAMYYCAADSRVYGGSWYERLCGPYTYEYNYWGQGTQVTVSSASHHHHHH
Data returned: label 0

Hey, just so you know, these numbers are from patent US20250163167A1.
